- TARGET_OF_ASSAY: recombinant human MMP-12 catalytic domain (Homo sapiens, UniProt P39900)
- Construct: recombinant human MMP-12 catalytic domain
- Sequence (P39900 106-268 limits assumed): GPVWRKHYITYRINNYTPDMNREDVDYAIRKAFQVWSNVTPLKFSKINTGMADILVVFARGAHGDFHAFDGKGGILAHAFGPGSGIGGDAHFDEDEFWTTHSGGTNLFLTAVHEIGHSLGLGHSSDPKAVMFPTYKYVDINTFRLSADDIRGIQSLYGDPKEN
- ASSAY_NAME: MMP-12 inhibitory assay (fluorogenic substrate cleavage)
- TEST_PARAMETERS: readout at 30 minutes, 37° C., Table 1
PROPERTY: IC50

Sample records with IC50:
Return reported IC50; argument: CCOc1cc(COc2ccc(Sc3ccncc3C3NC(=O)NC3=O)cc2)ccn1 (stereo not shown) [PC-31]
10 to 100 nM

What does the data say about its IC50? Entry: Cc1cc(COc2ccc(Sc3cc(C)ncc3C3NC(=O)NC3=O)cc2)ccn1 (stereo not shown) [PC-45]
10 to 100 nM

May I ask what IC50 has been recorded for Cc1cccc(COc2ccc(Sc3ccncc3C3NC(=O)NC3=O)cc2)c1 (stereo not shown) [PC-2] ?
10 to 100 nM

What value of IC50 has been recorded for this entry: CNC(=O)c1cccc(COc2ccc(Sc3ccncc3C3NC(=O)NC3=O)cc2)c1 (stereo not shown) [PC-29]
10 to 100 nM

For the molecule Cc1cc(CCc2ccc(Oc3ccncc3C3NC(=O)NC3=O)cc2)ccn1 (stereo not shown) [PC-62] , what IC50 is on record?
100 to 1000 nM

// query IC50 value for entry CCOc1cccc(COc2ccc(Sc3ccsc3C3NC(=O)NC3=O)cc2)c1 (stereo not shown) [TC2]
100 to 1000 nM

# context switch: different molecule, same IC50
Give the measured IC50 of O=C1NC(=O)C(c2cnccc2Oc2ccc(OCc3cccc(CO)c3)cc2)N1 (stereo not shown) [PC-25] .
10 to 100 nM
